Test: Five daily dose (X5) mouse range-finding and lethality study
Format: in vivo, CD2 F1 mice
Settings: mouse, in vivo, iv, combined sexes
Quantity: LD50 (mg/kg)
# output: bare number, implied unit mg/kg

// query # input molecule: CN(C)CCN1C(=O)c2cccc3cc(N)cc(c23)C1=O ; wanted: its LD50
// result 28.4

----------
Would you mind telling me the reported minimal effective dose of each entry?
Tested on: leukemia P388
Assay: NCI studies against leukemia P388 (Appendix 1, MDA and T/C)
Type: in vivo, murine
Conditions: Mus musculus, P388; minor active dose reaching T/C≥120
Entry format: amount then unit.

// query // lookup minimal effective dose | system=leukemia P388 | key= CCOC(=O)Nc1cc2c3c(cccc3c1)C(=O)N(CCN(C)C)C2=O [Example 28]
// result 30 mg/kg

// query Then CC(=O)Nc1cc2c3c(cccc3c1)C(=O)N(CCN(C)C)C2=O [Example 30] ?
// result 3.75 mg/kg

// query Lookup CCOC(=O)Nc1cc2c3c(cccc3c1)C(=O)N(CCN1CCCC1)C2=O [Example 29]
// result 30 mg/kg

// query Same question for CN(C)CCN1C(=O)c2cccc3cc(N)cc(c23)C1=O [Example 9] please.
// result 2 mg/kg
